Entry source: the M2OR odorant receptor database

# Target Under Test: OR5M11 (Homo sapiens) (UniProt Q96RB7)
# Sequence (Q96RB7 whole entry): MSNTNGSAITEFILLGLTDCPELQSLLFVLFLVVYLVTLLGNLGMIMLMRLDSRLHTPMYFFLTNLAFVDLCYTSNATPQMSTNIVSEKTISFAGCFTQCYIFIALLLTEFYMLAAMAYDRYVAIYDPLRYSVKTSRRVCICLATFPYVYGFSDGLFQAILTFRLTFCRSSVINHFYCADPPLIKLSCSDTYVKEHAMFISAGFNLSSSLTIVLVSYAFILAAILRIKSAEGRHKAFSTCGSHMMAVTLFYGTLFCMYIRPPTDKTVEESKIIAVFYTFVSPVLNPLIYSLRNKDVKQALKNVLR
# Experimental Parameters: stereoisomer not certain
Value Kind: odorant receptor agonist call

1. Cc1cnc(C)c(C)n1 = inactive
2. CC1=C(O)C(=O)C(C)O1 (stereo not drawn) = inactive
3. CCC(S)C(C)CO (stereo not drawn) = inactive

====

# Target Under Test: OR52D1 (Homo sapiens)
# Sequence (whole entry): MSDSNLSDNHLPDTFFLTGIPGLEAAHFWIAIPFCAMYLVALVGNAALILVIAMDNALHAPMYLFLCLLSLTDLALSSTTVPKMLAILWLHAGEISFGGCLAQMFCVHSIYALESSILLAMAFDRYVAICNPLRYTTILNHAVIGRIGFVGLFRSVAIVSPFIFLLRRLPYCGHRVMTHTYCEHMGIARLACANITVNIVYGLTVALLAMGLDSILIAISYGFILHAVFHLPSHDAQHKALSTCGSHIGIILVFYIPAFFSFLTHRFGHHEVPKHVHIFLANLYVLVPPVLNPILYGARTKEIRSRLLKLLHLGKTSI
# Experimental Parameters: stereoisomer not certain
Respond only with the outcome that fits, drawn from active, inactive

1) CCCCCCC(=O)OCC = active
2) CCCCCCCC(=O)OC = inactive
3) CCCCCCCO = inactive
4) O=c1ccc2ccccc2o1 = inactive
5) Cc1occc(=O)c1O = inactive

Problem: Identify the outcome logged in this assay for the molecule shown: CCCCCCCC(=O)OCC
Result: inactive

Problem: Call for entry CCCCCCCCCC(=O)[O-].[H+] :
Result: inactive
